- experimental-target: Ab-15
- Sequence (heavy, as listed by the source, chain 1 of 2): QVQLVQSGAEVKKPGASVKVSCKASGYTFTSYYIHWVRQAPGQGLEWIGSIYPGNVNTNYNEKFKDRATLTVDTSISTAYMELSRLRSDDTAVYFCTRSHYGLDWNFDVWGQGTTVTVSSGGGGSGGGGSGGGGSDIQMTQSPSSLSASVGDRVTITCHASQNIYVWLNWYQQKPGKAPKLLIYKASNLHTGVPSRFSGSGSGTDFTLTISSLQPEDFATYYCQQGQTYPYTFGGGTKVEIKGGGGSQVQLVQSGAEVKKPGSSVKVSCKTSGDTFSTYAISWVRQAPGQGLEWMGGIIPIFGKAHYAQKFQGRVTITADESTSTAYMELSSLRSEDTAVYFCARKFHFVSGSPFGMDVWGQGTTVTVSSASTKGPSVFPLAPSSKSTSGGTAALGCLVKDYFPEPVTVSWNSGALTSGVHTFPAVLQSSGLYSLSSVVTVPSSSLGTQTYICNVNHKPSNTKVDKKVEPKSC
- Sequence (light, as listed by the source, chain 2 of 2): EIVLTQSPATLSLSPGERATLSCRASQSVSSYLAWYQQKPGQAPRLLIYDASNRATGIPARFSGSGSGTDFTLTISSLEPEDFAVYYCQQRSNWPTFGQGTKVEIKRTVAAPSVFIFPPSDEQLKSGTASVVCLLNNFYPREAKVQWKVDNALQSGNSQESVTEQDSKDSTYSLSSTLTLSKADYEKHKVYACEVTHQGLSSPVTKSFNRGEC
- assay-name: BLI (Octet): sensor loaded with 200 nM biotinylated peptide, 100 nM Ab-15;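 also: binding association and dissociation tracked in real time, fitted to a 1:1 binding model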
Where no end group is shown, it is not given here.
Each entry gets condition not met if its t1/2 stays under 4 min, and condition met if its t1/2 is 4 min or above.

Example entries and their recorded answers appear below.
binder	class-name
HDWCPRDLWVHCFA (cysteine pairing not given here; also: biotinylated, site not given here, CD28 peptide mask) [Peptide-59]	condition not met
ADWCPRDLWVHCFA (cysteine pairing not given here; also: biotinylated, site not given here, CD28 peptide mask) [Peptide-52]	condition not met
RDWCPRDLWVHCFA (cysteine pairing not given here; also: biotinylated, site not given here, CD28 peptide mask) [Peptide-53]	condition met

// next entry
Inquiry: Determine whether this binder has t1/2 no lower than 4 min: QDWCPRDLWVHCFA (cysteine pairing not given here; also: biotinylated, site not given here, CD28 peptide mask) [Peptide-56]
Reply text: condition not met
